Every entry's value here was drawn from PubChem BioAssay AID1963872.

- Test system: KRAS patient-derived spheroids with HUVEC/MSC, viability
- test_method_notes: Anticancer human tumor 519858-162-T-J1-PDC patient-derived colon adenocarcinoma cell line growth inhibition [KRAS2]
- assay_setup: second compound 0.1 µM; first compound 1 µM; hits give low values

compound	viability, T/C [%]
Cn1nccc1Nc1nccc(-c2cc3c(s2)C(C)(C)N(CCN2CCOCC2)C3=O)n1 + CC1OCC2(CCN(c3cnc(Sc4ccnc(N)c4Cl)c(N)n3)CC2)C1N	64.3
CC1(C)CCC(CN2CCN(c3ccc(C(=O)NS(=O)(=O)c4ccc(NCC5CCOCC5)c([N+](=O)[O-])c4)c(Oc4cnc5[nH]ccc5c4)c3)CC2)=C(c2ccc(Cl)cc2)C1 + COc1cc2nc(C)nc(NC(C)c3cc(N)cc(C(F)(F)F)c3)c2cc1OC1CCOC1	82.5
CC(=O)OC12COC1CC(O)C1(C)C(=O)C(O)C3=C(C)C(OC(=O)C(O)C(NC(=O)OC(C)(C)C)c4ccccc4)CC(O)(C(OC(=O)c4ccccc4)C21)C3(C)C (stereo unspecified) + CNCc1ccccc1-c1csc(C(C)Nc2nc(C)nc3cc(OC)c(OC)cc23)c1	78
COc1cc(Nc2ncc3c(n2)-c2ccc(Cl)cc2C(c2c(F)cccc2OC)=NC3)ccc1C(=O)O + C=CC(=O)N1CCN(c2nc(=O)n(-c3c(C)ccnc3C(C)C)c3nc(-c4c(O)cccc4F)c(F)cc23)C(C)C1	102
CC1(C)CCC(CN2CCN(c3ccc(C(=O)NS(=O)(=O)c4ccc(NCC5CCOCC5)c([N+](=O)[O-])c4)c(Oc4cnc5[nH]ccc5c4)c3)CC2)=C(c2ccc(Cl)cc2)C1 + CC1OCC2(CCN(c3cnc(Sc4ccnc(N)c4Cl)c(N)n3)CC2)C1N	82.3
CCNC(=O)CC1N=C(c2ccc(Cl)cc2)c2cc(OC)ccc2-n2c(C)nnc21 (stereo unspecified) + C=CC(=O)N1CCN(c2nc(=O)n(-c3c(C)ccnc3C(C)C)c3nc(-c4c(O)cccc4F)c(F)cc23)C(C)C1	70.3

---

- Test system: KRAS patient-derived spheroids with HUVEC/MSC, viability
- test_method_notes: Anticancer human tumor 519858-162-T-J1-PDC cell line growth inhibition [KRAS2];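 further: compound exposure lasted seven days before readout; 100% = DMSO vehicle control viability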
- assay_setup: second compound 1 µM; first compound 3.16 µM; hits give low values
Reported viability, T/C values for the following molecules.
assay_readout: viability, T/C (%)

molecule	system	assay_readout	reported_result
CC1COCCN1c1cc(-c2ccnn2C)c2ccnc(-c3ccn[nH]3)c2n1 (centres undefined) + CC1OCC2(CCN(c3cnc(Sc4ccnc(N)c4Cl)c(N)n3)CC2)C1N	KRAS patient-derived spheroids with HUVEC/MSC, viability	viability, T/C	41.1
CC(C)NCC(C(=O)N1CCN(c2ncnc3c2C(C)CC3O)CC1)c1ccc(Cl)cc1 (centres undefined) + COc1cc2nc(C)nc(NC(C)c3cc(N)cc(C(F)(F)F)c3)c2cc1OC1CCOC1	KRAS patient-derived spheroids with HUVEC/MSC, viability	viability, T/C	49.4
CC(=O)OC12COC1CC(O)C1(C)C(=O)C(O)C3=C(C)C(OC(=O)C(O)C(NC(=O)OC(C)(C)C)c4ccccc4)CC(O)(C(OC(=O)c4ccccc4)C21)C3(C)C (centres undefined) + C=CC(=O)N1CCN(c2nc(=O)n(-c3c(C)ccnc3C(C)C)c3nc(-c4c(O)cccc4F)c(F)cc23)C(C)C1	KRAS patient-derived spheroids with HUVEC/MSC, viability	viability, T/C	67.8
CC1OCC2(CCN(c3cnc(Sc4ccnc(N)c4Cl)c(N)n3)CC2)C1N (centres undefined) + C=CC(=O)N1CCN(c2nc(OCC3CCCN3C)nc3c2CCN(c2cccc4cccc(C)c24)C3)CC1CC#N	KRAS patient-derived spheroids with HUVEC/MSC, viability	viability, T/C	54.9
CCNC(=O)CC1N=C(c2ccc(Cl)cc2)c2cc(OC)ccc2-n2c(C)nnc21 (centres undefined) + COc1cc2nc(C)nc(NC(C)c3cc(N)cc(C(F)(F)F)c3)c2cc1OC1CCOC1	KRAS patient-derived spheroids with HUVEC/MSC, viability	viability, T/C	5.67
Cn1nccc1Nc1nccc(-c2cc3c(s2)C(C)(C)N(CCN2CCOCC2)C3=O)n1 + CC1OCC2(CCN(c3cnc(Sc4ccnc(N)c4Cl)c(N)n3)CC2)C1N	KRAS patient-derived spheroids with HUVEC/MSC, viability	viability, T/C	28.1
CC1COCCN1c1cc(-c2ccnn2C)c2ccnc(-c3ccn[nH]3)c2n1 (centres undefined) + C=CC(=O)N1CCN(c2nc(=O)n(-c3c(C)ccnc3C(C)C)c3nc(-c4c(O)cccc4F)c(F)cc23)C(C)C1	KRAS patient-derived spheroids with HUVEC/MSC, viability	viability, T/C	39.6
CC1(C)CCC(CN2CCN(c3ccc(C(=O)NS(=O)(=O)c4ccc(NCC5CCOCC5)c([N+](=O)[O-])c4)c(Oc4cnc5[nH]ccc5c4)c3)CC2)=C(c2ccc(Cl)cc2)C1 + C=CC(=O)N1CCN(c2nc(OCC3CCCN3C)nc3c2CCN(c2cccc4cccc(C)c24)C3)CC1CC#N	KRAS patient-derived spheroids with HUVEC/MSC, viability	viability, T/C	53.4
CC(C)NCC(C(=O)N1CCN(c2ncnc3c2C(C)CC3O)CC1)c1ccc(Cl)cc1 (centres undefined) + CC1OCC2(CCN(c3cnc(Sc4ccnc(N)c4Cl)c(N)n3)CC2)C1N	KRAS patient-derived spheroids with HUVEC/MSC, viability	viability, T/C	59.2
Cn1nccc1Nc1nccc(-c2cc3c(s2)C(C)(C)N(CCN2CCOCC2)C3=O)n1 + C=CC(=O)N1CCN(c2nc(=O)n(-c3c(C)ccnc3C(C)C)c3nc(-c4c(O)cccc4F)c(F)cc23)C(C)C1	KRAS patient-derived spheroids with HUVEC/MSC, viability	viability, T/C	59.4
CC(=O)OC12COC1CC(O)C1(C)C(=O)C(O)C3=C(C)C(OC(=O)C(O)C(NC(=O)OC(C)(C)C)c4ccccc4)CC(O)(C(OC(=O)c4ccccc4)C21)C3(C)C (centres undefined) + C=CC(=O)N1CCN(c2nc(OCC3CCCN3C)nc3c2CCN(c2cccc4cccc(C)c24)C3)CC1CC#N	KRAS patient-derived spheroids with HUVEC/MSC, viability	viability, T/C	74
CC1(C)CCC(CN2CCN(c3ccc(C(=O)NS(=O)(=O)c4ccc(NCC5CCOCC5)c([N+](=O)[O-])c4)c(Oc4cnc5[nH]ccc5c4)c3)CC2)=C(c2ccc(Cl)cc2)C1 + C=CC(=O)N1CCN(c2nc(=O)n(-c3c(C)ccnc3C(C)C)c3nc(-c4c(O)cccc4F)c(F)cc23)C(C)C1	KRAS patient-derived spheroids with HUVEC/MSC, viability	viability, T/C	84.6
CC1COCCN1c1cc(-c2ccnn2C)c2ccnc(-c3ccn[nH]3)c2n1 (centres undefined) + C=CC(=O)N1CCN(c2nc(OCC3CCCN3C)nc3c2CCN(c2cccc4cccc(C)c24)C3)CC1CC#N	KRAS patient-derived spheroids with HUVEC/MSC, viability	viability, T/C	26.7
O=C(c1cc(Cc2n[nH]c(=O)c3ccccc23)ccc1F)N1CCN(C(=O)C2CC2)CC1 + C=CC(=O)N1CCN(c2nc(OCC3CCCN3C)nc3c2CCN(c2cccc4cccc(C)c24)C3)CC1CC#N	KRAS patient-derived spheroids with HUVEC/MSC, viability	viability, T/C	86.9
CCNC(=O)CC1N=C(c2ccc(Cl)cc2)c2cc(OC)ccc2-n2c(C)nnc21 (centres undefined) + CNCc1ccccc1-c1csc(C(C)Nc2nc(C)nc3cc(OC)c(OC)cc23)c1	KRAS patient-derived spheroids with HUVEC/MSC, viability	viability, T/C	34.9
COc1cc(Nc2ncc3c(n2)-c2ccc(Cl)cc2C(c2c(F)cccc2OC)=NC3)ccc1C(=O)O + C=CC(=O)N1CCN(c2nc(=O)n(-c3c(C)ccnc3C(C)C)c3nc(-c4c(O)cccc4F)c(F)cc23)C(C)C1	KRAS patient-derived spheroids with HUVEC/MSC, viability	viability, T/C	83
CCNC(=O)CC1N=C(c2ccc(Cl)cc2)c2cc(OC)ccc2-n2c(C)nnc21 (centres undefined) + C=CC(=O)N1CCN(c2nc(OCC3CCCN3C)nc3c2CCN(c2cccc4cccc(C)c24)C3)CC1CC#N	KRAS patient-derived spheroids with HUVEC/MSC, viability	viability, T/C	35.8
O=C(c1cc(Cc2n[nH]c(=O)c3ccccc23)ccc1F)N1CCN(C(=O)C2CC2)CC1 + C=CC(=O)N1CCN(c2nc(=O)n(-c3c(C)ccnc3C(C)C)c3nc(-c4c(O)cccc4F)c(F)cc23)C(C)C1	KRAS patient-derived spheroids with HUVEC/MSC, viability	viability, T/C	89.3
CC1(C)CCC(CN2CCN(c3ccc(C(=O)NS(=O)(=O)c4ccc(NCC5CCOCC5)c([N+](=O)[O-])c4)c(Oc4cnc5[nH]ccc5c4)c3)CC2)=C(c2ccc(Cl)cc2)C1 + COc1cc2nc(C)nc(NC(C)c3cc(N)cc(C(F)(F)F)c3)c2cc1OC1CCOC1	KRAS patient-derived spheroids with HUVEC/MSC, viability	viability, T/C	66.8
